Assay: Half life in mouse at 10 mg/kg, iv and 20 mg/kg, po
Conditions: in vivo
MEASURED_PARAMETER: half-life (min)
Only the number, expressed in min, is required.

Supply measured half-life of O=C(O)c1cccnc1 in your reply.
1.2

* * *

Entries and their pIC50 values follow.
Experiment: Displacement of [3H]Niacin from human niacin receptor expressed in CHO cells
Type: cell-based
Scale for pIC50: -log10 of concentration given in mol/L; no unit attached.

COMPOUND | pIC50
O=C(CCc1ccc2ccccc2c1)NC1=C(C(=O)O)CCCC1 | 7.42
O=C(CCc1csc(-c2ccc(O)cc2Cl)n1)Nc1ccccc1C(=O)O | 9.00
O=C(CCc1ccc2cc(O)ccc2c1)NC1=C(C(=O)O)CCCC1 | 7.08
O=C(CCc1ccc(-c2ccccc2)cc1)NC1=C(C(=O)O)CCCC1 | 7.68
O=C(CCc1ccc(-c2ccccc2)cc1)NC1=C(C(=O)O)CCC1 | 6.89

Supply measured pIC50 of O=C(CCc1cccc(-c2ccccc2)c1)NC1=C(C(=O)O)CCCC1 in your reply.
6.85

Supply measured pIC50 of O=C(CCc1cccc2ccccc12)NC1=C(C(=O)O)CCCC1 in your reply.
7.00

Supply measured pIC50 of O=C(CCc1ccc2cc(O)ccc2c1)NC1=C(C(=O)O)COCC1 in your reply.
6.05

Supply measured pIC50 of CC(CC(=O)NC1=C(C(=O)O)CCCC1)c1csc(-c2ccc(O)cc2Cl)n1 (centres undefined) in your reply.
8.70
